Exercise: for every item that follows, state its recorded kon.
Molecular target: T1, mouse tissue factor pathway inhibitor (TFPI) (mouse, UniProt O54819 29-289, limits assumed)
T1 construct: bought; also called mTFPI; murine TFPI
T1 sequence (looked up): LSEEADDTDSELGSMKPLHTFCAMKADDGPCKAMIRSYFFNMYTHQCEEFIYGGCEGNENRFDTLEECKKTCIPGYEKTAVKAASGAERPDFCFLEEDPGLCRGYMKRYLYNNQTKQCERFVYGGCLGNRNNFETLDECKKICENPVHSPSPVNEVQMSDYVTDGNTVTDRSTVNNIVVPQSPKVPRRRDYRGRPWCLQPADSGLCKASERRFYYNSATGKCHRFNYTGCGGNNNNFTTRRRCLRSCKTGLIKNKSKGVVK
Assay: SPR, TFPI immobilized
Express your answer in M⁻¹ s⁻¹, writing the number without its unit.

For 2A8 wild-type Fab (Fab, V domains shown, Fab with c-myc (or HA, or none) and 6xHis tag at the C-terminus of the heavy chain; also called 2A8wt; 2A8 wt) VH: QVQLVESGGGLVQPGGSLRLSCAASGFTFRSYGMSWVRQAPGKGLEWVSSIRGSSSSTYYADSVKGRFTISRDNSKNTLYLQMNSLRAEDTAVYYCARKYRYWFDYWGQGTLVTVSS VL: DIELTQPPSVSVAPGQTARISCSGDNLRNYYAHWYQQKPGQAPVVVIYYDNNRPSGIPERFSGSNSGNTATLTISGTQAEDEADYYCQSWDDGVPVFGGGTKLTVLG the binder record lists kon as 1.47e+06

The binder listed as 4B7 HC_D62R (Fab, V domains shown, also called 4B7-D62R) VH: QVQLQQSGPGLVKPSQTLSLTCAISGDSVSSNSAAWSWIRQSPGRGLEWLGIIYKRSKWYNRYAVSVKSRITINPDTSKNQFSLQLNSVTPEDTAVYYCARWHSDKHWGFDYWGQGTLVTVSS VL: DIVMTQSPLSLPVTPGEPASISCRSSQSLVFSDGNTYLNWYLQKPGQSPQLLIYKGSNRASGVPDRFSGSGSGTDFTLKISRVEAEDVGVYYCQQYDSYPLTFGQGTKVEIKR has a reported kon of 8.58e+06

The binder listed as 2A8 HC_S31P (Fab, V domains shown, also called 2A8-2) VH: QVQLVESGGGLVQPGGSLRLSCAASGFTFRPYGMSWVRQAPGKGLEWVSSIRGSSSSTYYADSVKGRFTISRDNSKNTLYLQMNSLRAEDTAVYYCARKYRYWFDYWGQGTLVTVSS VL: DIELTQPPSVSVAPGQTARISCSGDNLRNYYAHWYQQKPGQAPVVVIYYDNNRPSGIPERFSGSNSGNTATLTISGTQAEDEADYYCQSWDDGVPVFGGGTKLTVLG has a reported kon of 1.53e+06

For 2A8 HC_S35D (Fab, V domains shown, also called 2A8-4) VH: QVQLVESGGGLVQPGGSLRLSCAASGFTFRSYGMDWVRQAPGKGLEWVSSIRGSSSSTYYADSVKGRFTISRDNSKNTLYLQMNSLRAEDTAVYYCARKYRYWFDYWGQGTLVTVSS VL: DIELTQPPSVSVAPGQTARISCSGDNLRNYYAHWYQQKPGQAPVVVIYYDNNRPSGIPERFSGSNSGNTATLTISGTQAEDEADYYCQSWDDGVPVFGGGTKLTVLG the binder record lists kon as 1.25e+06

Briefly, kon measured for 2A8 HC_S54F (Fab, V domains shown, also called 2A8-7) VH: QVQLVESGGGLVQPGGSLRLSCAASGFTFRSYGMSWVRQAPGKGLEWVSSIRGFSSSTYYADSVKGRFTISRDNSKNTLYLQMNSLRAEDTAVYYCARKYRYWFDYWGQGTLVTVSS VL: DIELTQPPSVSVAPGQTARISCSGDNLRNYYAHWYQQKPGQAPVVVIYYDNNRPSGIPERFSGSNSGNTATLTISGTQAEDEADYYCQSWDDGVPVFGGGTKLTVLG : 884000

Entry under test: 2A8 LC_D91W (Fab, V domains shown, also called 2A8-17) VH: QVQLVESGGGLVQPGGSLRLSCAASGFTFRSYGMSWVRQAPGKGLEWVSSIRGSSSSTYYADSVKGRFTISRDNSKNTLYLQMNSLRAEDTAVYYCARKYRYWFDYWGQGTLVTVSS VL: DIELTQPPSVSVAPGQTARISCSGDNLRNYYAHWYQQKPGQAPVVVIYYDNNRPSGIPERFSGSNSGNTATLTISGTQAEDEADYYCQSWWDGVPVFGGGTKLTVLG . Its kon was 2.86e+06

The binder identified as 4B7 wild-type Fab (Fab, V domains shown, Fab with HA (or c-myc) and 6xHis tag at the C-terminus of the heavy chain; also called 4B7wt; parental 4B7) VH: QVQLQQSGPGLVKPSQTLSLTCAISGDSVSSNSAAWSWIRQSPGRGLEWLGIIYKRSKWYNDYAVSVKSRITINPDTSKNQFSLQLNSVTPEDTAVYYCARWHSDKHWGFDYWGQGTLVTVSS VL: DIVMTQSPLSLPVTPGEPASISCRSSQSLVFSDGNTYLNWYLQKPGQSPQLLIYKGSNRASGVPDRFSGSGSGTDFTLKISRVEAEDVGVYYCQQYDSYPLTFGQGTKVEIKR registered its kon at 2.18e+06

The reported numbers originate from patent USRE47150.
